Several reports have described Ki for Coagulation factor X (Homo sapiens, UniProt P00742); a selection of those results is presented here.
Binning rule for recorded Ki: lower bin: < 2 nM; middle bin: ≥ 2 nM and < 500 nM; upper bin: ≥ 500 nM

{"columns": ["COMPOUND", "DISCRETE LABEL"],
 "data": [
  ["O=C(O)C1CCN(c2ccc(N3C[C@H](CNCc4ccc(-c5noc(=O)[nH]5)cc4)OC3=O)cc2)CC1", "upper bin"],
  ["COc1ccc(-n2nc(C#N)c3c2C(=O)N(c2ccc(-c4ccccc4CN4CC[C@@H](O)C4)cc2)CC3)cc1", "lower bin"],
  ["N=C(N)c1cc2c(OC(COC(=O)Nc3cccc(F)c3)c3ccccc3)cccc2s1 (stereo unspecified)", "upper bin"],
  ["N=C(N)c1cccc(Oc2cccc(Oc3cccc(C(=N)N)c3)n2)c1", "middle bin"],
  ["CCCCCC(NC(=O)[C@@H]1CCCN1C(=O)[C@@H](NC(=O)OCc1ccccc1)C(c1ccccc1)c1ccccc1)B1O[C@@H]2CC3CC(C3(C)C)[C@]2(C)O1 (stereo partly specified)", "upper bin"],
  ["Nc1noc2ccc(-n3nc(C(F)(F)F)cc3C(=O)Cc3ccc(-c4ccccc4S(N)(=O)=O)cc3F)cc12", "lower bin"],
  ["COC(=O)C(=O)NC(CCc1cccc[n+]1[O-])C(=O)N1CCC[C@H]1C(=O)NCc1cc(Cl)ccc1CN (stereo partly specified)", "lower bin"],
  ["COC(=O)[C@H](Cc1cccc(C(=N)N)c1)[C@@H](C)NC(=O)c1ccc(-c2ccccc2)cc1", "middle bin"],
  ["Cc1ccc(NC(=O)c2sc3ccccc3c2Cl)c(C(=O)Nc2ccc(Br)cc2)c1", "lower bin"],
  ["OCCN1CCCCC1CCNc1nccc2oc(Cc3cc(Cl)ccc3-n3cncn3)nc12 (stereo unspecified)", "middle bin"],
  ["O=C(OC1O[C@@H]2COC(=O)c3cc(O)c(O)c(O)c3-c3c(cc(O)c(O)c3O)C(=O)O[C@H]2[C@H](OC(=O)c2cc(O)c(O)c(O)c2)[C@H]1OC(=O)c1cc(O)c(O)c(O)c1)c1cc(O)c(O)c(O)c1 (stereo partly specified)", "middle bin"],
  ["COC(=O)[C@H](Cc1cccc(C(=N)N)c1)[C@@H](C)NC(=O)c1ccc(-c2c[nH]cn2)cc1", "middle bin"],
  ["N=C(N)NCCC[C@@H](NS(=O)(=O)Cc1ccccc1)C(=O)[C@H](CO)NCc1ccc(C(=N)N)cc1", "middle bin"],
  ["CCOc1cc(OC(C)C)c(F)c(C(Nc2ccc(C(=N)N)cc2)c2nc(-c3ccccc3OC)c[nH]2)c1 (stereo unspecified)", "middle bin"],
  ["C#Cc1cc(OC2CCOCC2)cc(C(Nc2ccc(C(=N)N)cc2)C(=O)O)c1 (stereo unspecified)", "upper bin"],
  ["CNCc1c(NC(=O)OCC(Oc2cccc3sc(C(=N)N)cc23)c2ccccc2)c(C)nn1C (stereo unspecified)", "upper bin"]
]}

====

Several reports have described Ki for Coagulation factor X (Homo sapiens, UniProt P00742); a selection of those results is presented here.
Mark Satisfied only for Ki values smaller than 60 nM; exact matches and larger values are Not satisfied.

{"columns": ["STRUCTURE SMILES STRING", "DISCRETE LABEL"],
 "data": [
  ["CCOC(=O)CN1CCC(Oc2c(F)c(Oc3cccc(C4=NCCN4C)c3)nc(Oc3cc(C(=N)N)ccc3O)c2F)CC1", "Satisfied"],
  ["CC(C)(C)NC(=O)NC1CCN(C(=O)[C@H](Cc2cccc(C(=N)N)c2)NS(=O)(=O)c2cccc(-c3ccc(F)c(CO)c3)c2)CC1", "Satisfied"],
  ["COc1ccc(-n2nc(S(C)(=O)=O)c3c2C(=O)N(c2ccc(C(C)(C)CN4CCOCC4)cc2)CC3)cc1", "Satisfied"],
  ["CC(C)(C)[C@@H](O)C(=O)N1CCCC[C@H]1C(=O)NCc1cc(Cl)ccc1CN.O=C(O)C(F)(F)F", "Not satisfied"],
  ["C[C@@H](C(=O)N1CCOCC1)N1CC[C@H](NS(=O)(=O)c2ccc(-c3nnc(Cl)s3)s2)C1=O", "Not satisfied"],
  ["N=C(N)c1cccc(CN2CCCC[C@H](NS(=O)(=O)c3ccc4ccccc4c3)C2=O)c1", "Not satisfied"],
  ["Cc1ccc(-c2cc(Cn3c(C(=O)NC4CCN(C(C)C)CC4)cc4ccccc43)no2)s1", "Satisfied"]
]}

====

Several reports have described pKi for UniProt:P00742; a selection of those results is presented here.
pKi: −log10 of the molar value.
Decide using pKi: a value greater than or equal to 6 is True, a smaller one is False.

{"columns": ["COMPOUND", "DISCRETE LABEL"],
 "data": [
  ["Cc1c(F)c(Oc2cccc(Nc3ccccc3)c2)nc(Oc2cccc(C(=N)N)c2)c1F", "False"],
  ["Cc1cccc2c1cc(C(=O)NC1CCN(C(C)C)CC1)n2CC(=O)Nc1ccc(C(=N)N)cc1", "True"],
  ["NCc1ccc(Cl)cc1CNC(=O)CNC(=O)C(CCc1cccc[n+]1[O-])NC(=O)C(=O)O (stereo not drawn)", "True"],
  ["N=C(N)c1cc2ccc(OCc3cccnc3)cc2s1", "False"],
  ["N=C(N)c1cccc(-n2nc(C(F)(F)F)cc2C(=O)Nc2ccc(-n3cnc4cccnc43)cc2F)c1", "True"],
  ["CCOc1cc(C(Nc2ccc(C(=N)N)cc2)C(=O)NCc2ccccc2)ccc1OCc1ccccc1 (stereo not drawn)", "False"],
  ["CCOC(=O)N1CCN(C(=O)[C@H](Cc2cccc(C(=N)N)c2)NS(=O)(=O)c2c(C(C)C)cc(C(C)C)cc2C(C)C)CC1", "False"],
  ["CN1CC(C)(COc2ccc(C(=N)N)cc2)Oc2cc(NC(=O)c3ccccc3)ccc21 (stereo not drawn)", "False"],
  ["O=C(NC[C@H]1CN(c2ccc(N3CCC(C(=O)O)CC3)cc2)C(=O)O1)c1ccc(-c2noc(=O)[nH]2)cc1", "False"],
  ["N=C(N)c1cccc(Oc2ccc(NC(=O)c3ccccc3)c(Oc3cccc(C(=N)N)c3)n2)c1", "True"],
  ["O=C(Nc1cccc(OCc2ccc(F)cc2)c1)C1CCN(c2ncccn2)CC1", "False"],
  ["CCOC(=O)N[C@@H](CCCCN)C(=O)c1noc(Cc2ccc(C(=O)NC3Cc4ccccc4C3)cc2)n1", "False"],
  ["N=C(N)c1ccc(O)c(/C=C/CNC(=O)c2ccc(-c3ccc(C(N)=O)cc3)cc2)c1", "True"],
  ["Cc1cc2ccc1[C@@H](C)COC(=O)Nc1cccc(c1)CNC(=O)[C@@H]2Nc1ccc2c(N)nccc2c1", "False"],
  ["COc1ccc(-n2nc(CN)c3ncn(-c4ccc(-c5ccccc5S(N)(=O)=O)cc4)c(=O)c32)cc1", "True"],
  ["CS(=O)(=O)c1ccccc1-c1ccc(N2CCCC(NS(=O)(=O)c3cc(Cl)ccc3Cl)C2=O)c(F)c1 (stereo not drawn)", "True"],
  ["CCOc1cc(C(Nc2ccc3c(N)nccc3c2)C(=O)NS(=O)(=O)c2ccc(O)cc2)ccc1OC(C)C (stereo not drawn)", "False"]
]}

====

Several reports have described pKi for Coagulation factor X (Homo sapiens, UniProt P00742); a selection of those results is presented here.
pKi: −log10 of the molar value.
Decide using pKi: a value greater than or equal to 7 is met, a smaller one is not met.

{"columns": ["COMPOUND", "DISCRETE LABEL"],
 "data": [
  ["COc1ccc2ccc(S(=O)(=O)N[C@H]3CCN(Cc4cc(C(=N)N)ccc4OCC(=O)O)C3=O)cc2c1", "not met"],
  ["COc1ccc(-n2nc(C#N)c3[nH]c(=O)n(-c4ccc(-c5ccccc5S(C)(=O)=O)cc4F)c(=O)c32)cc1", "met"],
  ["N=C(N)c1cccc(C[C@H](NS(=O)(=O)c2cccc(NC(=O)CCN)c2)C(=O)N2CCC(CCCN=C(N)N)CC2)c1", "not met"],
  ["N=C(N)c1cccc(C[C@H](NS(=O)(=O)c2cccc(NC(=O)CCN)c2)C(=O)N2CCC(CCNC(N)=O)CC2)c1", "not met"],
  ["CN1CC(C)(COc2ccc(C(=N)N)cc2)Oc2cc(N(CC(=O)O)Cc3cc(F)cc(F)c3)ccc21 (configuration not stated)", "not met"],
  ["CN(Cc1nccn1-c1ccc2c(c1)CCN2C(=O)c1cc(C(N)=O)nn1-c1ccc2onc(N)c2c1)S(C)(=O)=O", "met"],
  ["CC[C@H](C)[C@H]1NC(=O)C[C@H](Cc2cccc(CN)c2)NC(=O)[C@@H]2CCCN2C(=O)[C@@H](NC(C)=O)CNC(=O)/C=C/[C@H](Cc2ccc(O)cc2)NC1=O", "not met"],
  ["Cc1c(F)c(Oc2cccc(C(=N)N)c2)nc(Oc2cccc(C(=O)N3CCCC3)c2)c1F", "not met"],
  ["Nc1noc2ccc(-n3nc(C(F)(F)F)c4c3C(=O)N(c3ccc(-c5ccccc5CN5CCCC5)cc3)CC4)cc12", "met"],
  ["O=C1OC[C@@H](O)[C@H]([C@@H]2OC(=O)c3cc(O)c(O)c(O)c3-c3c(O)c(O)c(O)c4c3C(=O)O[C@H]2[C@H]4O)OC(=O)c2cc(O)c(O)c(O)c2-c2c1cc(O)c(O)c2O", "not met"],
  ["N=C(N)c1cccc(-n2nc(C(F)(F)F)cc2C(=O)Nc2ccc(-c3ccccc3S(N)(=O)=O)cn2)c1", "met"],
  ["O=C(NC1CN(c2ccncc2)C1)c1cc2ccccc2n1Cc1cc(-c2ccc(Cl)s2)on1", "met"],
  ["COc1cccc(NC(=O)C(Oc2cccc3sc(C(=N)N)cc23)c2ccccc2)c1 (configuration not stated)", "not met"],
  ["CC1CCCCN1C(=O)N(Cc1ccc(C(=N)N)cc1)NS(=O)(=O)c1ccc2ccccc2c1 (configuration not stated)", "not met"],
  ["N=C(N)c1ccc(CNC(=O)[C@H](Cc2ccc(N)cc2)NC(=O)[C@@H](CC2CCCCC2)NCC(=O)O)cc1", "not met"],
  ["COc1cc(C(Nc2ccc(C(=N)N)cc2)C(=O)NCc2ccccc2)ccc1OCc1ccccc1 (configuration not stated)", "not met"],
  ["FC(F)(F)CN1CCCCC1CCNc1nccc2oc(Cc3cc(Cl)ccc3-n3cncn3)nc12 (configuration not stated)", "met"],
  ["COc1ccc2ccc(S(=O)(=O)N(Cc3ccsc3)[C@H]3CCN(Cc4cccc(C(=N)N)c4)C3=O)cc2c1", "met"],
  ["Nc1ccc2[nH]c(-c3cc(CC(=O)O)cc(-c4cccc([N+](=O)[O-])c4)c3O)nc2n1", "not met"],
  ["COc1cc(CNc2ccc(C(=N)N)cc2)c(NS(C)(=O)=O)cc1OCc1ccccc1", "not met"],
  ["O=C1C(NS(=O)(=O)c2ccc3cc(Cl)ccc3c2)CCCN1c1ccc(-n2ccccc2=O)cc1F (configuration not stated)", "met"],
  ["COC(=O)C(C)CN(c1ccc2nc(C)n(Cc3ccc4ccc(C(=N)N)cc4c3)c2c1)C1CCN(C(C)=N)CC1 (configuration not stated)", "met"],
  ["O=C(Nc1ccc(Cl)cc1)c1cc(Cl)ccc1NC(=O)c1scc(Cn2ncnn2)c1Cl", "met"],
  ["Cc1ccc(NS(=O)(=O)Cc2ccc(F)cc2)c(=O)n1CC(=O)N[C@@H]1CCc2nc(N)sc2C1", "not met"],
  ["N=C(N)c1cc2c(O[C@@H](c3ccccc3)c3nc(-c4ccccc4)no3)cccc2s1", "not met"],
  ["CC(=N)N1CCC(Oc2ccc(N(C/C=C/c3cc(C(=N)N)ccc3O)C(=O)CCC(=O)O)cc2C(F)(F)F)CC1", "met"],
  ["COc1ccc2cc(S(=O)(=O)NN(Cc3cccc(C(=N)N)c3)C(=O)N3CCCCCC3)ccc2c1", "not met"],
  ["CS(=O)(=O)c1ccccc1-c1ccc(NC(=O)c2cc(C(F)(F)F)nn2-c2ccccc2CCCN)c(F)c1", "not met"],
  ["Cc1c(F)c(Oc2cccc(C(=N)N)c2)nc(Oc2ccc(Cl)c(N(C)C)c2)c1F", "not met"]
]}
